tested on: 186277-243-T-J2-PDC complex spheroids, viability; assay: Anticancer human tumor 186277-243-T-J2-PDC patient-derived colon adenocarcinoma cell line growth inhibition [RAS]; settings: second compound 1 µM; first compound 0.0316 µM; stronger effect = lower value
Rule: viability, T/C below 20% gives y. Equal to or above 20% gives n.

Use these answered entries as a reference point.
compound="CC(Nc1ccc2c(c1)OCCn1cc(N3C(=O)OCC3C(F)F)nc1-2)C(N)=O (stereo not given) + C#Cc1c(F)ccc2cc(O)cc(-c3ncc4c(N5CC6CCC(C5)N6)nc(OCC56CCCN5CC(F)C6)nc4c3F)c12" category_label=y
compound="NC1c2ccccc2OC12CCN(c1cnc3c(N4CCCc5ncccc54)n[nH]c3n1)CC2 (stereo not given) + C#Cc1c(F)ccc2cc(O)cc(-c3ncc4c(N5CC6CCC(C5)N6)nc(OCC56CCCN5CC(F)C6)nc4c3F)c12" category_label=y
compound="C=CC(=O)Nc1cc(Nc2nccc(-c3cn(C)c4ccccc34)n2)c(OC)cc1N(C)CCN(C)C + C=CC(=O)N1CCN(c2nc(OCC3CCCN3C)nc3c(F)c(-c4nc(N)cc(C)c4C(F)(F)F)c(Cl)cc23)C(C)C1" category_label=n
compound="CC(Nc1ccc2c(c1)OCCn1cc(N3C(=O)OCC3C(F)F)nc1-2)C(N)=O (stereo not given) + C=CC(=O)N1CCN(c2nc(OCC3CCCN3C)nc3c(F)c(-c4nc(N)cc(C)c4C(F)(F)F)c(Cl)cc23)C(C)C1" category_label=n

Next compound, please.
[Q] Quick check: does CCC(CC)c1cc(NC2CCC(N)C2)n2nccc2n1 (stereo not given) + C#Cc1c(F)ccc2cc(O)cc(-c3ncc4c(N5CC6CCC(C5)N6)nc(OCC56CCCN5CC(F)C6)nc4c3F)c12 have viability, T/C under 20%?
[A] y

---

Overview of recorded viability, T/C for various compounds
test system: 186277-243-T-J2-PDC complex spheroids, viability; assay: Anticancer human tumor 186277-243-T-J2-PDC cell line growth inhibition [RAS]; conditions: second compound 0.03 µM; first compound 10 µM; stronger effect = lower value;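 note: spheroids exposed to compounds for 7 days before viability read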
Unit % implied. Number only.

compound="CC(C)NCC(C(=O)N1CCN(c2ncnc3c2C(C)CC3O)CC1)c1ccc(Cl)cc1 (centres undefined) + CCn1c(-c2cccnc2C(C)OC)c2c3cc(ccc31)N1CCOC(CC(NC(=O)C(C(C)C)N(C)C(=O)C3(F)CCN(C(=O)C#CC(C)(C)N(C)C)CC3)C(=O)N3CCCC(N3)C(=O)OCC(C)(C)C2)C1" val=25.3
compound="Cc1nc(N2CCC3(CC2)COC(C)C3N)c(CO)nc1Sc1ccnc(N)c1Cl (centres undefined) + CCn1c(-c2cc(N3CCN(C)CC3)cnc2C(C)OC)c2c3cc(ccc31)-c1csc(n1)CC(NC(=O)C1CC1C)C(=O)N1CCCC(N1)C(=O)OCC(C)(C)C2" val=2.28
compound="CCC(CC)c1cc(NC2CCC(N)C2)n2nccc2n1 (centres undefined) + CCn1c(-c2cc(N3CCN(C)CC3)cnc2C(C)OC)c2c3cc(ccc31)-c1csc(n1)CC(NC(=O)C1CC1C)C(=O)N1CCCC(N1)C(=O)OCC(C)(C)C2" val=0.19

Now turn to the next compound.
[Q] Would you mind telling me what viability, T/C value was observed for C[C@@H](NC(=O)c1ncnc(N)c1Cl)c1ncc(C(=O)Nc2cc(C(F)(F)F)c(Cl)cn2)s1 + CCn1c(-c2cc(N3CCN(C)CC3)cnc2C(C)OC)c2c3cc(ccc31)-c1csc(n1)CC(NC(=O)C1CC1C)C(=O)N1CCCC(N1)C(=O)OCC(C)(C)C2 ?
[A] 10
